- System: Escherichia coli TOP10
- protocol notes: shrunken log2 fold change of peptide-encoding DNA abundance (4.5 h post-induction vs induction); higher = less antimicrobial activity (less host growth inhibition)
- condition parameters: time post-induction: 4.5 h; library: site-saturation at positions 5, 18, 19, 20
Assign class by shrunken log2 fold change: not lower than 0.06 means Yes; lower than 0.06 means No.

# count of solved cases: 5
RRIRERPPRLPRPRPRPQWNPRP
No
RRIRLRPPRLPRPRPRPCWQPRP
No
RRIRKRPPRLPRPRPRPRAFPRP
Yes
RRIRLRPPRLPRPRPRPSECPRP
Yes
RRIRIRPPRLPRPRPRPAQPPRP
Yes

Ask: Please tell me: is the sequence `RRIRPRPPRLPRPRPRPHAEPRP` at or over 0.06 in terms of shrunken log2 fold change?
Result: Yes

Ask: Please tell me: is the sequence `RRIRMRPPRLPRPRPRPLRYPRP` at or over 0.06 in terms of shrunken log2 fold change?
Result: Yes

Ask: Please tell me: is the sequence `RRIRYRPPRLPRPRPRPQIRPRP` at or over 0.06 in terms of shrunken log2 fold change?
Result: No

Ask: Please tell me: is the sequence `RRIRTRPPRLPRPRPRPDENPRP` at or over 0.06 in terms of shrunken log2 fold change?
Result: No

Ask: Please tell me: is the sequence `RRIRCRPPRLPRPRPRPSSAPRP` at or over 0.06 in terms of shrunken log2 fold change?
Result: No

Ask: Please tell me: is the sequence `RRIRVRPPRLPRPRPRPQGRPRP` at or over 0.06 in terms of shrunken log2 fold change?
Result: No

Ask: Please tell me: is the sequence `RRIRFRPPRLPRPRPRPAVTPRP` at or over 0.06 in terms of shrunken log2 fold change?
Result: No

###

- Test system: Escherichia coli TOP10;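 note: peptides expressed intracellularly from a pBAD plasmid library in pooled LB shake-flask culture, induced with 0.3% L-arabinose, DNA abundance read by NGS, three biological replicates, DESeq2 with apeglm shrinkage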
- protocol notes: shrunken log2 fold change of peptide-encoding DNA abundance (4.5 h post-induction vs induction); higher = less antimicrobial activity (less host growth inhibition)
- condition parameters: time post-induction: 4.5 h; library: site-saturation at positions 5, 18, 19, 20
Classification by shrunken log2 fold change | ranges: band A = under -0.1, band B = from -0.1 up to 0.3, band C = 0.3 and over

# count of solved cases: 5
RRIRHRPPRLPRPRPRPMHWPRP
band A
RRIRVRPPRLPRPRPRPLDRPRP
band A
RRIRQRPPRLPRPRPRPCGFPRP
band B
RRIRCRPPRLPRPRPRPFIWPRP
band A
RRIRVRPPRLPRPRPRPWNEPRP
band B

Ask: Kindly state the category for this sequence: `RRIRNRPPRLPRPRPRPAEWPRP`
Result: band C

Ask: Kindly state the category for this sequence: `RRIRTRPPRLPRPRPRPNISPRP`
Result: band A

Ask: Kindly state the category for this sequence: `RRIRARPPRLPRPRPRPRQKPRP`
Result: band B

Ask: Kindly state the category for this sequence: `RRIRARPPRLPRPRPRPVWWPRP`
Result: band C

Ask: Kindly state the category for this sequence: `RRIRLRPPRLPRPRPRPAAVPRP`
Result: band C

Ask: Kindly state the category for this sequence: `RRIRTRPPRLPRPRPRPACSPRP`
Result: band B

Ask: Kindly state the category for this sequence: `RRIRKRPPRLPRPRPRPDWPPRP`
Result: band B
